Answer each item with its documented furin cleavage Z-score.
# target-or-test-system: furin, P09958;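 also: purified furin at 1:10 enzyme:substrate in 50 mM HEPES pH 7.5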
# Sequence (P09958 whole entry): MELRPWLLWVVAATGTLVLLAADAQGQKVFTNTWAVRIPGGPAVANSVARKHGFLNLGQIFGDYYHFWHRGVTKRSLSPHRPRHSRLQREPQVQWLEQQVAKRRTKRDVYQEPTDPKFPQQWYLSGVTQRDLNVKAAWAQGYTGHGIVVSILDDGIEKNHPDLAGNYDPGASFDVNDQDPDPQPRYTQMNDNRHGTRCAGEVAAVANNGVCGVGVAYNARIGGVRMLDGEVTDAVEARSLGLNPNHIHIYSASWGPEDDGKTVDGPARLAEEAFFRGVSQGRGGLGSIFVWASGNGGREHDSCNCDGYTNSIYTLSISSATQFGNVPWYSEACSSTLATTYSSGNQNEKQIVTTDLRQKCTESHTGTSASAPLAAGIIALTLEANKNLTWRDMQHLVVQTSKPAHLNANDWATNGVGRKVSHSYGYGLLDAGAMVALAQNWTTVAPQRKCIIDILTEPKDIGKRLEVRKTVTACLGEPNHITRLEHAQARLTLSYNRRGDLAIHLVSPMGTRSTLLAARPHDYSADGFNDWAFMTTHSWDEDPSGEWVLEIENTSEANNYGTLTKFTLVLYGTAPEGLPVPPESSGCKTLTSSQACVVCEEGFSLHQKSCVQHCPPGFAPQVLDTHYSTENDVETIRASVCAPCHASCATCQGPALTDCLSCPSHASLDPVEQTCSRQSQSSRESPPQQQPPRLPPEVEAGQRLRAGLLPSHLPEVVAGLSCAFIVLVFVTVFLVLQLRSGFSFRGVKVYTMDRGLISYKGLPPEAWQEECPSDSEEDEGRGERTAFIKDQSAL
# protocol-details: furin cleavage Z-score vs untreated control; higher = more cleavage, active = 3.5 or more, inactive = 1 or less, 8 variable residues between constant flanks
# assay-context: 15 min
Some of the results follow. No count for the full screen is at hand.
Simply state the number, no unit and no words.

Challenge: Recorded furin cleavage Z-score of CAEVPCHRPTAGNASASA [HC2418] , please.
Response given: -0.0389

Challenge: Recorded furin cleavage Z-score of CARKKRIVTGAGNASASA [FS-2342] , please.
Response given: 4.97

Challenge: Recorded furin cleavage Z-score of CATTPCSGMWAGNASASA [HC1906] , please.
Response given: 0.804

Challenge: Recorded furin cleavage Z-score of CAPKGRPKRAAGNASASA [FS-1047] , please.
Response given: 13.3

Challenge: Recorded furin cleavage Z-score of CAVVCCSMSMAGNASASA [HC2086] , please.
Response given: -1.35

Challenge: Recorded furin cleavage Z-score of CARQRRGEERAGNASASA [FS-2761] , please.
Response given: 0.285

Challenge: Recorded furin cleavage Z-score of CARKGKSSSAAGNASASA [FS-1725] , please.
Response given: -1.17

Challenge: Recorded furin cleavage Z-score of CARQVRYLEKAGNASASA [FS-2175] , please.
Response given: 1.05

Challenge: Recorded furin cleavage Z-score of CAGVCCSMSYAGNASASA [HC1996] , please.
Response given: -0.0583

Challenge: Recorded furin cleavage Z-score of CAQGTRFKRAAGNASASA [FS-847] , please.
Response given: 10.3

Challenge: Recorded furin cleavage Z-score of CAPREVPCHRAGNASASA [HC2439] , please.
Response given: 1.55

Challenge: Recorded furin cleavage Z-score of CARQRRDLLNAGNASASA [FS-2173] , please.
Response given: 11.7

Challenge: Recorded furin cleavage Z-score of CARQKKAAEKAGNASASA [FS-2584] , please.
Response given: -0.974

Challenge: Recorded furin cleavage Z-score of CARQRRALEKAGNASASA [FS-1769] , please.
Response given: 5.75

Challenge: Recorded furin cleavage Z-score of CAILGGWVAAAGNASASA [HC1066] , please.
Response given: -0.574
